List of viability values.
- PROTOCOL TEXT: Immunomodulatory activity, two-way mixed lymphocyte reaction assay (% LCV)
- Format: cell-based, murine
- TEST PARAMETERS: mouse, lymphocytes, 10.0 ug/well
Note: unit % is implicit; provide only the numeric part.

CN(C)CCc1c2ncsc2c2c3c(c4ccccc4nc13)C=CN2C = 67

--- query ---
The molecule CN(C)CCc1c2c3c(c4scnc14)N(C)CCC3c1ccccc1N2 (centres unmarked) [Tetrahydrodercitin 1, tetrahydrodercitin 1] showed viability equal to 41

---

- PROTOCOL TEXT: Immunomodulatory activity, two-way mixed lymphocyte reaction assay (% LCV)
- Type: cell-based, murine
- TEST PARAMETERS: mouse, lymphocytes, 0.1 ug/well
Reported viability values are given for each entry in this list.
Kindly report the value followed by its unit.

CN(C)CCc1c2c3c(c4scnc14)N(C)CCC3c1ccccc1N2 (centres unmarked) [Tetrahydrodercitin 1, tetrahydrodercitin 1] = 91%

// viability lookup, compound = CN(C)CCc1c2ncsc2c2c3c(c4ccccc4nc13)C=CN2C , result: 48%
